- ASSAYED_SYSTEM: human GPBAR1 receptor (Homo sapiens, UniProt Q8TDU6)
- Construct: expressed in transfected cells
- Sequence (Q8TDU6 whole entry): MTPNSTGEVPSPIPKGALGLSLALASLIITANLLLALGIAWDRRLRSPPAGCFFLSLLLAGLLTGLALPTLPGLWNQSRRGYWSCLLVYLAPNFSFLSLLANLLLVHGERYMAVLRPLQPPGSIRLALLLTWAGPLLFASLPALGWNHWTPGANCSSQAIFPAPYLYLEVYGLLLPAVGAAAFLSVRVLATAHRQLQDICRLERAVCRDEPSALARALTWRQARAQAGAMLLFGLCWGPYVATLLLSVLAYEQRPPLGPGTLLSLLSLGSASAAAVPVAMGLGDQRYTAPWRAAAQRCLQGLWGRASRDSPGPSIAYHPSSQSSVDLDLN
- TEST_DETAILS: functional cAMP assay in CHO-dhfr(minus) cells expressing human GPBAR1 receptors
- Assay type: cell-based
- CONDITION: human EC50, functional cAMP assay, 30 min at 30° C.
OBSERVABLE: pEC50
A value of pEC50 is the negative decimal logarithm of a concentration given in moles per litre.

Q: If you can, please state the reported pEC50 value of CCOC(=O)COc1cccc(-c2ccc(C(C/C(=N\O)c3ccncc3)c3ccccc3)cc2)c1 (stereo not shown) [Example 28] .
Result: 6.79

Q: Check Cc1ccccc1C(C/C(=N\O)c1ccc(=O)n(C)c1)c1ccc(C(=O)NCC(O)C(F)(F)F)cc1 (stereo not shown) [Example 309] too.
Result: 6.89

Q: Check Cc1cc(/C(CC(c2ccc(C(=O)NC3CCS(=O)(=O)CC3)cc2)c2ccc(F)cc2F)=N/O)ccn1 (stereo not shown) [Example 440] too.
Result: 6.83

Q: Check Cc1cc(/C(C[C@H](c2ccc(C3CCNCC3)cc2)c2ccccc2C)=N/O)ccn1 [Example 378] too.
Result: 6.84

Q: Check CS(=O)(=O)c1ccc(-c2ccc(C(C/C(=N\O)c3ccncc3)c3ccccc3)cc2)cc1 (stereo not shown) [Example 20] too.
Result: 7.18

Q: Check COCCn1cc(/C(CC(c2ccc(S(C)(=O)=O)cc2)c2ccc(Cl)cc2C)=N/O)ccc1=O (stereo not shown) [Example 341] too.
Result: 6.79

Q: Check Cc1ccccc1C(CC(=NO)c1ccncc1)c1ccc(-c2ccc(S(C)(=O)=O)cc2)cc1 (racemic) [Example 33] too.
Result: 7.33

Q: Check Cc1ccccc1C(C/C(=N\O)c1ccc(=O)n(C)c1)c1ccc(C(=O)NC[C@@H](O)CO)cc1 (stereo partly shown) [Example 307] too.
Result: 6.94

Q: Check Cc1cc(/C(C[C@H](c2ccc(C3CCN(S(C)(=O)=O)CC3)cc2)c2ccc(Cl)cc2C)=N/O)ccn1 [Example 389] too.
Result: 7.48

Q: Check Cn1cc(/C(CC(Cc2ccc(OC(F)(F)F)cc2)c2ccc(Br)cc2)=N/O)ccc1=O (stereo not shown) [Example 180] too.
Result: 5.46
